Tested on: HT-29
Assay: Chemosensitivity, 96 h continuous exposure, MTT assay
Type: cell-based, human
Conditions: ratio of IC50, HT29
Protocol: All cell lines were purchased from and maintained as monolayers as described by the American Type Culture Collection with the exception of the p53^+/+ and p53^−/− isogenic clones of HCT116 human colorectal adenocarcinoma cells which were a kind gift from Professor Bert Vogelstein[54]. […] The response of cells following a continuous 96-h exposure to test compounds and platinates was determined using the MTT assay. […]
Consider the following compounds; for each one, report its Relative potency (+ anion to no anion), Ratio + anion:no anion.

Q: Request body: readout Relative potency (+ anion to no anion), Ratio + anion:no anion, system HT-29, query O=S(=O)(O)O.[Zn+2].[Zn+2].[Zn+2].c1ccc(-c2csc(NCCN(CCNc3nc(-c4ccccn4)cs3)CCNc3nc(-c4ccccn4)cs3)n2)nc1.c1ccc(-c2csc(NCCN(CCNc3nc(-c4ccccn4)cs3)CCNc3nc(-c4ccccn4)cs3)n2)nc1 [[L2Zn3(SO4)]4+] . Return the value.
Result: 1.41

Q: Request body: readout Relative potency (+ anion to no anion), Ratio + anion:no anion, system HT-29, query CC(=O)[O-].CC(=O)[O-].CC(=O)[O-].CC(=O)[O-].CC(=O)[O-].CC(=O)[O-].[Zn+2].[Zn+2].[Zn+2].c1ccc(-c2csc(NCCN(CCNc3nc(-c4ccccn4)cs3)CCNc3nc(-c4ccccn4)cs3)n2)nc1.c1ccc(-c2csc(NCCN(CCNc3nc(-c4ccccn4)cs3)CCNc3nc(-c4ccccn4)cs3)n2)nc1 [[L2Zn3]6+] . Return the value.
Result: 1

* * *

Consider the following compounds; for each one, report its Relative potency (+ anion to no anion), Ratio + anion:no anion.
Test system: H460
Test: Chemosensitivity, 96 h continuous exposure, MTT assay
Assay type: cell-based, human
Settings: ratio of IC50, H460
A bare number is all that is needed in reply.

Q: Request body: readout Relative potency (+ anion to no anion), Ratio + anion:no anion, system H460, query [Cu+2].[Cu+2].[Cu+2].c1ccc(-c2csc(NCCN(CCNc3nc(-c4ccccn4)cs3)CCNc3nc(-c4ccccn4)cs3)n2)nc1.c1ccc(-c2csc(NCCN(CCNc3nc(-c4ccccn4)cs3)CCNc3nc(-c4ccccn4)cs3)n2)nc1 [[L2Cu3]6+] . Return the value.
Result: 1

Q: Request body: readout Relative potency (+ anion to no anion), Ratio + anion:no anion, system H460, query CC(=O)[O-].CC(=O)[O-].CC(=O)[O-].O=P([O-])([O-])[O-].[Zn+2].[Zn+2].[Zn+2].c1ccc(-c2csc(NCCN(CCNc3nc(-c4ccccn4)cs3)CCNc3nc(-c4ccccn4)cs3)n2)nc1.c1ccc(-c2csc(NCCN(CCNc3nc(-c4ccccn4)cs3)CCNc3nc(-c4ccccn4)cs3)n2)nc1 [[L2Zn3(PO4)]3+] . Return the value.
Result: 0.69

Q: Request body: readout Relative potency (+ anion to no anion), Ratio + anion:no anion, system H460, query CC(=O)[O-].CC(=O)[O-].CC(=O)[O-].CC(=O)[O-].CC(=O)[O-].CC(=O)[O-].[Zn+2].[Zn+2].[Zn+2].c1ccc(-c2csc(NCCN(CCNc3nc(-c4ccccn4)cs3)CCNc3nc(-c4ccccn4)cs3)n2)nc1.c1ccc(-c2csc(NCCN(CCNc3nc(-c4ccccn4)cs3)CCNc3nc(-c4ccccn4)cs3)n2)nc1 [[L2Zn3]6+] . Return the value.
Result: 1
